System: NCI-H3122
Assay: Cell proliferation experiment (Cell-Titer GLO), NCI-H3122
Format: cell-based
Conditions: Homo sapiens, 72 h
pIC50: −log10 of the molar value.
Measured pIC50, listed per entry for reference.
PROPERTY_LABEL: pIC50

[[record]]
compound = "Cc1cc(Nc2ncc(Cl)c(Nc3ccccc3S(=O)(=O)C(C)C)n2)c(OC(C)C)cc1C1CCNCC1 [Ceritinib, reference compound]"
assay_result = 7.39

[[record]]
compound = "Cc1cc(Nc2ncc(C(F)(F)F)c(Nc3cn(C)nc3S(=O)(=O)C(C)C)n2)c2c(c1C1CCNCC1)C[C@@H](C)O2"
assay_result = 7.97

[[record]]
compound = "Cc1cc(Nc2ncc(C(F)(F)F)c(Nc3cn(C)nc3S(=O)(=O)C(C)C)n2)c2c(c1C1CCN(C)CC1)C[C@@H](C)O2"
assay_result = 7.97

[[record]]
compound = "Cc1cc(Nc2ncc(C(F)(F)F)c(Nc3cn(C4CC4)nc3S(=O)(=O)C(C)C)n2)c2c(c1C1CCN(C)CC1)C[C@@H](C)O2"
assay_result = 7.93

[[record]]
compound = "Cc1cc(Nc2ncc(Cl)c(Nc3cn(C)nc3S(=O)(=O)C(C)C)n2)c2c(c1C1CCN(C)CC1)C[C@@H](C)O2 [REX-D2]"
assay_result = 7.97

[[record]]
compound = "CC(=O)N1CCC(c2c(C)cc(Nc3ncc(Cl)c(Nc4cn(C)nc4S(=O)(=O)C(C)C)n3)c3c2C[C@@H](C)O3)CC1"
assay_result = 7.97


----------
Test system: NCI-H3122
Assay: Cell proliferation experiment (Cell-Titer GLO), NCI-H3122
Format: cell-based
Details: Homo sapiens, 72 h
PROPERTY_LABEL: IC50 (µM)

[[record]]
molecule = "Cc1cc(Nc2ncc(Cl)c(Nc3cn(C(C)C)nc3S(=O)(=O)C(C)C)n2)c2c(c1C1CCNCC1)C[C@@H](C)O2"
property_label = "IC50"
unit_abbreviation = "µM"
assay_result = 0.0572

[[record]]
molecule = "Cc1cc(Nc2ncc(C(F)(F)F)c(Nc3cn(C)nc3S(=O)(=O)CC(C)C)n2)c2c(c1C1CCN(C)CC1)C[C@@H](C)O2"
property_label = "IC50"
unit_abbreviation = "µM"
assay_result = 0.0142

[[record]]
molecule = "Cc1cc(Nc2ncc(Cl)c(Nc3cn(C)nc3S(=O)(=O)C(C)C)n2)c2c(c1C1CCNCC1)C[C@@H](C)O2 [REX-D1]"
property_label = "IC50"
unit_abbreviation = "µM"
assay_result = 0.0106

[[record]]
molecule = "Cc1cc(Nc2ncc(Cl)c(Nc3cn(C4CC4)nc3S(=O)(=O)C(C)C)n2)c2c(c1C1CCN(C)CC1)C[C@@H](C)O2"
property_label = "IC50"
unit_abbreviation = "µM"
assay_result = 0.0139


----------
Measured IC50, listed per entry for reference.
Biological target: ALK L1196M (Homo sapiens, UniProt Q9UM73, L1196M)
Sequence (Q9UM73 19-1620 L1196M): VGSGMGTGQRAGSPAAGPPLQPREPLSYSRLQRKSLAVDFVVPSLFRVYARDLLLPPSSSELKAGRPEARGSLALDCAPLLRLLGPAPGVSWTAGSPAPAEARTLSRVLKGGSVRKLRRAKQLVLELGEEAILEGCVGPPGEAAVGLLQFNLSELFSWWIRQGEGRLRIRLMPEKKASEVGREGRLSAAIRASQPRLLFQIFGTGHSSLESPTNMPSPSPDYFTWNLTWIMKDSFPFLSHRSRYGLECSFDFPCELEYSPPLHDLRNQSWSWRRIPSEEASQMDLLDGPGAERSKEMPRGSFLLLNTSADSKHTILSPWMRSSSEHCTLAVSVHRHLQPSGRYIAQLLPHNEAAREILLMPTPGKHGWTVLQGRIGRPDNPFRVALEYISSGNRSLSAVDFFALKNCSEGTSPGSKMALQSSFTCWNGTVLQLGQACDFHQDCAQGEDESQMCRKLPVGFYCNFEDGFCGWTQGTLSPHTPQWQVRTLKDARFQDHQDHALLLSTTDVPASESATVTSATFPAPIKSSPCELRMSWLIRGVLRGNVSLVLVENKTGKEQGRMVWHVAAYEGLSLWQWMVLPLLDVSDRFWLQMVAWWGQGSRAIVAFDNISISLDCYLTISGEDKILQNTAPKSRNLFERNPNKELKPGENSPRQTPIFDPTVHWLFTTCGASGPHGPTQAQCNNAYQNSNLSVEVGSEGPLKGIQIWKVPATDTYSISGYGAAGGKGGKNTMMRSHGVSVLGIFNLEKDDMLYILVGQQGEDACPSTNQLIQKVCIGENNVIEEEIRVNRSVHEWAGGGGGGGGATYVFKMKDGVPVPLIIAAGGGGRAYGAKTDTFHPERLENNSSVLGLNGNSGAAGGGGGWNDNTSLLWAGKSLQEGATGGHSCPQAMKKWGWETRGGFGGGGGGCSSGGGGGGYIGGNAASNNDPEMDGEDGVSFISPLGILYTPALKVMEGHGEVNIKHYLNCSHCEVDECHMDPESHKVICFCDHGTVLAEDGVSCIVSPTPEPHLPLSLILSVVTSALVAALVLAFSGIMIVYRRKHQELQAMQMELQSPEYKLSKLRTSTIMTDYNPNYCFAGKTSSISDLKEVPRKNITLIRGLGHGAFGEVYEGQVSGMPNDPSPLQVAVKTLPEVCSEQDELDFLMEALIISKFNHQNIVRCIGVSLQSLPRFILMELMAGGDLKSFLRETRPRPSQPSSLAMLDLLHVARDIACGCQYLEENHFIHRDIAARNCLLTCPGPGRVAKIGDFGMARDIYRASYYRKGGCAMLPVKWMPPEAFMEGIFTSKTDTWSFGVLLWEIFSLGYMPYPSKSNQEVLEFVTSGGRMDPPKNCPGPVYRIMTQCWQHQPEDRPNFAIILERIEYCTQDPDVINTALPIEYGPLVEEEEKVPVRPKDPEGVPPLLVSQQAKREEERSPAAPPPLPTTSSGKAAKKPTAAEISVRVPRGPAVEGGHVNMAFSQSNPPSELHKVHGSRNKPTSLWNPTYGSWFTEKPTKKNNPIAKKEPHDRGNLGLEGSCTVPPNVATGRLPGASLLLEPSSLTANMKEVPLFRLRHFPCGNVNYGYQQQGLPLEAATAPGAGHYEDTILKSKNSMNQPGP
Assay: LanthaScreen Eu Kinase Binding Assay (TR-FRET) on ALK mutant
PROPERTY_LABEL: IC50 (nM)

[[record]]
molecule = "Cc1cc(Nc2ncc(C(F)(F)F)c(Nc3cn(C)nc3S(=O)(=O)C(C)C)n2)c2c(c1C1CCNCC1)C[C@@H](C)O2"
measured_target = "ALK L1196M (Homo sapiens, UniProt Q9UM73, L1196M)"
comparison_operator = "="
assay_result = 1.25

[[record]]
molecule = "Cc1cc(Nc2ncc(Cl)c(Nc3cn(C)nc3S(=O)(=O)C(C)C)n2)c2c(c1C1CCNCC1)C[C@@H](C)O2 [REX-D1]"
measured_target = "ALK L1196M (Homo sapiens, UniProt Q9UM73, L1196M)"
comparison_operator = "="
assay_result = 1.34

[[record]]
molecule = "Cc1cc(Nc2ncc(Cl)c(Nc3cn(C(C)C)nc3S(=O)(=O)C(C)C)n2)c2c(c1C1CCN(C)CC1)C[C@@H](C)O2"
measured_target = "ALK L1196M (Homo sapiens, UniProt Q9UM73, L1196M)"
comparison_operator = "="
assay_result = 1.99

[[record]]
molecule = "CC(=O)N1CCC(c2c(C)cc(Nc3ncc(Cl)c(Nc4cn(C)nc4S(=O)(=O)C(C)C)n3)c3c2C[C@@H](C)O3)CC1"
measured_target = "ALK L1196M (Homo sapiens, UniProt Q9UM73, L1196M)"
comparison_operator = "="
assay_result = 1.07

[[record]]
molecule = "CCn1cc(Nc2nc(Nc3cc(C)c(C4CCNCC4)c4c3O[C@H](C)C4)ncc2Cl)c(S(=O)(=O)C(C)C)n1"
measured_target = "ALK L1196M (Homo sapiens, UniProt Q9UM73, L1196M)"
comparison_operator = "="
assay_result = 2

[[record]]
molecule = "Cc1cc(Nc2ncc(Cl)c(Nc3cn(C(C)C)nc3S(=O)(=O)C(C)C)n2)c2c(c1C1CCNCC1)C[C@@H](C)O2"
measured_target = "ALK L1196M (Homo sapiens, UniProt Q9UM73, L1196M)"
comparison_operator = "="
assay_result = 3.86

[[record]]
molecule = "Cc1cc(Nc2ncc(C(F)(F)F)c(Nc3cn(C4CC4)nc3S(=O)(=O)C(C)C)n2)c2c(c1C1CCN(C)CC1)C[C@@H](C)O2"
measured_target = "ALK L1196M (Homo sapiens, UniProt Q9UM73, L1196M)"
comparison_operator = "="
assay_result = 1.02

[[record]]
molecule = "Cc1cc(Nc2ncc(Cl)c(Nc3cn(C4CC4)nc3S(=O)(=O)C(C)C)n2)c2c(c1C1CCN(C)CC1)C[C@@H](C)O2"
measured_target = "ALK L1196M (Homo sapiens, UniProt Q9UM73, L1196M)"
comparison_operator = "="
assay_result = 1.12

[[record]]
molecule = "CCn1cc(Nc2nc(Nc3cc(C)c(C4CCN(C)CC4)c4c3O[C@H](C)C4)ncc2Cl)c(S(=O)(=O)C(C)C)n1"
measured_target = "ALK L1196M (Homo sapiens, UniProt Q9UM73, L1196M)"
comparison_operator = "="
assay_result = 0.55

[[record]]
molecule = "Cc1cc(Nc2ncc(C(F)(F)F)c(Nc3cn(C)nc3S(=O)(=O)CC(C)C)n2)c2c(c1C1CCN(C)CC1)C[C@@H](C)O2"
measured_target = "ALK L1196M (Homo sapiens, UniProt Q9UM73, L1196M)"
comparison_operator = "<"
assay_result = 0.5


----------
Measured GI50, listed per entry for reference.
Target: TEL-ALK-C1156Y-BaF3 (Homo sapiens, UniProt Q9UM73, C1156Y, cells depend on it)
Construct: fused on or other part: TEL (ETV6) N-terminal oligomerising part fused before the ALK intracellular/kinase part; P41212 (Transcription factor ETV6)
Sequence (Q9UM73 whole entry C1156Y, the tested form may be a part): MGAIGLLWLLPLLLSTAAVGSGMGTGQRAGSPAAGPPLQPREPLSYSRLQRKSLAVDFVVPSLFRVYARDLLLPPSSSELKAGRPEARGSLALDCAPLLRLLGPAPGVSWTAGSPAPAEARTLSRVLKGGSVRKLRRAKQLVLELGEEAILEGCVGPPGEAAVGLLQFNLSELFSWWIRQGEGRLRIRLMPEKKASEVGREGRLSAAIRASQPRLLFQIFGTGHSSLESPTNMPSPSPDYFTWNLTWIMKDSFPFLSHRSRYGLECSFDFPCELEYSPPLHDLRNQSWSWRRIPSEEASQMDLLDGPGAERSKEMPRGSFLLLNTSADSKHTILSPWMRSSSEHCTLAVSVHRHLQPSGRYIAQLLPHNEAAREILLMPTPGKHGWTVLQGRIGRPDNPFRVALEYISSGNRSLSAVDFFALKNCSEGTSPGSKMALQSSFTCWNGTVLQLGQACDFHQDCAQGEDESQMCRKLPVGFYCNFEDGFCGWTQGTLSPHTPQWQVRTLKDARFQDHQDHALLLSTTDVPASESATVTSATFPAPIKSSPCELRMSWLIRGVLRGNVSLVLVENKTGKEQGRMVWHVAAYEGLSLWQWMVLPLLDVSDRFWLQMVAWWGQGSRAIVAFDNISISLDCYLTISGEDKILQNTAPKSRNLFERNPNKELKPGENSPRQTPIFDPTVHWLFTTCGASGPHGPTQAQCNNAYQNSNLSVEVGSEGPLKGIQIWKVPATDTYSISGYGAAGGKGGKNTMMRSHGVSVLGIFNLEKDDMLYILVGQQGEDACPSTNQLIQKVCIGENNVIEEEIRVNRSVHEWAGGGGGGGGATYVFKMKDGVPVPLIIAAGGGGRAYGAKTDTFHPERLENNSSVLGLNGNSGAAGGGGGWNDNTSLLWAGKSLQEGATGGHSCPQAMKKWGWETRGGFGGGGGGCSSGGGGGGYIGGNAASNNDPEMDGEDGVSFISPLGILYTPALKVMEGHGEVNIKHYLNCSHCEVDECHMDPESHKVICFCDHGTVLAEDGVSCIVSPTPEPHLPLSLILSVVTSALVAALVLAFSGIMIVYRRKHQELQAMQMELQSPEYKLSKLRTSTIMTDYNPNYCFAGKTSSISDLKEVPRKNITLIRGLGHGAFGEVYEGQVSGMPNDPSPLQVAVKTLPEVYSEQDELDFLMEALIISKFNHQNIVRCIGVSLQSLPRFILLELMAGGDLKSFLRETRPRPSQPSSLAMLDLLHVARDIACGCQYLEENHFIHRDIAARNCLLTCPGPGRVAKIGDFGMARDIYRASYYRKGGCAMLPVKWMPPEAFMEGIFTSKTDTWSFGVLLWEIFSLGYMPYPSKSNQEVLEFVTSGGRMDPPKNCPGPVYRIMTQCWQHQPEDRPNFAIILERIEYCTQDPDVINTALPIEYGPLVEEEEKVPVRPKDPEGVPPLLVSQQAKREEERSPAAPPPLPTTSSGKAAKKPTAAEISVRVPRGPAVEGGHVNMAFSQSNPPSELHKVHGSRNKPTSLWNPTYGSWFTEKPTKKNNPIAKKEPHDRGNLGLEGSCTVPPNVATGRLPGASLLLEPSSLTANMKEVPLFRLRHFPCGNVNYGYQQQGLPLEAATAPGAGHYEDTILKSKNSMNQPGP
Experiment: Cell proliferation experiment (Cell-Titer GLO), TEL-ALK-C1156Y-BaF3
Format: cell-based
Details: 72 h, read-out: IC50 TEL-ALK C1156Y-BaF3
Description: Compounds to be tested: Positive compound Ceritinib and the compounds obtained by the examples of the present invention. […] Method: Cells were seeded in 96-well plates for 24 h in growth media containing 10% fetalbovine serum (FBS) and cultured overnight at 37° C. […] IC50 values were calculated by concentration-response curve fitting using a four-parameter analytical method with Graphpad 6.0. […]
PROPERTY_LABEL: GI50 (nM)

[[record]]
compound = "Cc1cc(Nc2ncc(Cl)c(Nc3cn(C)nc3S(=O)(=O)C(C)C)n2)c2c(c1C1CCNCC1)C[C@@H](C)O2 [REX-D1]"
unit_abbreviation = "nM"
assay_result = 10.5

[[record]]
compound = "Cc1cc(Nc2ncc(Cl)c(Nc3cn(C)nc3S(=O)(=O)C(C)C)n2)c2c(c1C1CCN(C)CC1)C[C@@H](C)O2 [REX-D2]"
unit_abbreviation = "nM"
assay_result = 10.4

[[record]]
compound = "Cc1cc(Nc2ncc(C(F)(F)F)c(Nc3cn(C)nc3S(=O)(=O)C(C)C)n2)c2c(c1C1CCNCC1)C[C@@H](C)O2"
unit_abbreviation = "nM"
assay_result = 10.5

[[record]]
compound = "Cc1cc(Nc2ncc(C(F)(F)F)c(Nc3cn(C)nc3S(=O)(=O)C(C)C)n2)c2c(c1C1CCN(C)CC1)C[C@@H](C)O2"
unit_abbreviation = "nM"
assay_result = 10.5

[[record]]
compound = "Cc1cc(Nc2ncc(Cl)c(Nc3ccccc3S(=O)(=O)C(C)C)n2)c(OC(C)C)cc1C1CCNCC1 [Ceritinib, reference compound]"
unit_abbreviation = "nM"
assay_result = 36.5


----------
Molecular target: ALK L1196M (Homo sapiens, UniProt Q9UM73, L1196M)
Experiment: LanthaScreen Eu Kinase Binding Assay (TR-FRET) on ALK mutant
PROPERTY_LABEL: IC50 (nM)

[[record]]
compound = "Cc1cc(Nc2ncc(Cl)c(Nc3cn(C)nc3S(=O)(=O)C(C)C)n2)c2c(c1C1CCN(C3CCNCC3)CC1)C[C@@H](C)O2 [REX-D13]"
measured_target = "ALK L1196M (Homo sapiens, UniProt Q9UM73, L1196M)"
unit_abbreviation = "nM"
comparison_operator = "="
assay_result = 1.02

[[record]]
compound = "Cc1cc(Nc2ncc(Cl)c(Nc3cn(C)nc3S(=O)(=O)C(C)C)n2)c2c(c1C1CCN(C)CC1)C[C@@H](C)O2 [REX-D2]"
measured_target = "ALK L1196M (Homo sapiens, UniProt Q9UM73, L1196M)"
unit_abbreviation = "nM"
comparison_operator = "="
assay_result = 0.695

[[record]]
compound = "Cc1cc(Nc2ncc(Cl)c(Nc3cn(C)nc3S(=O)(=O)C(C)C)n2)c2c(c1C1CCN(C(C)C)CC1)C[C@@H](C)O2 [REX-D14]"
measured_target = "ALK L1196M (Homo sapiens, UniProt Q9UM73, L1196M)"
unit_abbreviation = "nM"
comparison_operator = "="
assay_result = 1.1

[[record]]
compound = "Cc1cc(Nc2ncc(C(F)(F)F)c(Nc3cn(C)nc3S(=O)(=O)C(C)C)n2)c2c(c1C1CCN(C)CC1)C[C@@H](C)O2 [REX-D4]"
measured_target = "ALK L1196M (Homo sapiens, UniProt Q9UM73, L1196M)"
unit_abbreviation = "nM"
comparison_operator = "="
assay_result = 0.565

[[record]]
compound = "Cc1cc(Nc2ncc(C(F)(F)F)c(Nc3cn(C)nc3S(=O)(=O)C(C)C)n2)c2c(c1C1CCN(CCO)CC1)C[C@@H](C)O2 [REX-D5]"
measured_target = "ALK L1196M (Homo sapiens, UniProt Q9UM73, L1196M)"
unit_abbreviation = "nM"
comparison_operator = "<"
assay_result = 0.5

[[record]]
compound = "Cc1cc(Nc2ncc(Cl)c(Nc3cn(C)nc3S(=O)(=O)C(C)C)n2)c2c(c1C1CCN(CCO)CC1)C[C@@H](C)O2 [REX-D11]"
measured_target = "ALK L1196M (Homo sapiens, UniProt Q9UM73, L1196M)"
unit_abbreviation = "nM"
comparison_operator = "<"
assay_result = 0.5

[[record]]
compound = "Cc1cc(Nc2ncc(Cl)c(Nc3cn(C4CC4)nc3S(=O)(=O)C(C)C)n2)c2c(c1C1CCNCC1)C[C@@H](C)O2 [REX-D31]"
measured_target = "ALK L1196M (Homo sapiens, UniProt Q9UM73, L1196M)"
unit_abbreviation = "nM"
comparison_operator = "="
assay_result = 1.92


Ref: patent US10710993B2
